target: T1, mouse EphA2 (Mouse, UniProt Q03145 26-538); experiment: FP direct binding, selectivity
T1 construct: extracellular domain; C-terminal polyHis; also called EphA2 (Ecto), Mouse
T1 sequence (Q03145 26-538): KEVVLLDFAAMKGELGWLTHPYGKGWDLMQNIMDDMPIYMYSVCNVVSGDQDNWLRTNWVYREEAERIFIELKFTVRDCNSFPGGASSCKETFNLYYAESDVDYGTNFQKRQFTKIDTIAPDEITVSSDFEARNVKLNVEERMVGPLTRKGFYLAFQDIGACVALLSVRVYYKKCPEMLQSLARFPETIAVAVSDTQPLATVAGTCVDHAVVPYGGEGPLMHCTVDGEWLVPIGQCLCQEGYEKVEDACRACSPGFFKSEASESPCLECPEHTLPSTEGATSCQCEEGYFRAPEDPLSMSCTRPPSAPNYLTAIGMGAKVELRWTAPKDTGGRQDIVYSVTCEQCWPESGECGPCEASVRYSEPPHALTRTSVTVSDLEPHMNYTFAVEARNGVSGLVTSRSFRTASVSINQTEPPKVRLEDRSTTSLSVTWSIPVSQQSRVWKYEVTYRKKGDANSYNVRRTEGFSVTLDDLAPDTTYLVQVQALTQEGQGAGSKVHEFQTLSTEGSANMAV
pKd: −log10 of the molar value. Numbered stars: 1 amine (or outer) side, 2 acyl side, 3 side chain; on linkers, the order of the positions; unused ones are H or OH. Bridge positions count the residues as written; N and C are the ends. Square brackets hold non-standard residues; d marks the D form. Ends that are not written are not given here. 1Nal = N[C@@H](Cc1cccc2ccccc12)C(=O)O; TBMB = c1c(C[*:1])cc(C[*:3])cc1C[*:2]; Gly(cPent) = N[C@H](C(=O)O)C1CCCC1; hArg = N=C(N)NCCCC[C@H](N)C(=O)O; Tle = CC(C)(C)[C@H](N)C(=O)O; AF488 = AlexaFluor488 label; Aib = CC(C)(N)C(=O)O; βAla = NCCC(=O)O; Sar = CNCC(=O)O
Everything with pKd lower than 8 is Not satisfied; everything else, including exactly 8, is Satisfied.

Recorded results for 4 binders are shown here.
binder	assigned.label
{AF488-βAla}-[Sar][Sar][Sar][Sar][Sar][Sar][Sar][Sar][Sar][Sar]H[dD]VPCP[1Nal]G[Aib]F[1Nal]CP[Tle]NR[Aib]GC (linker 15-22-29 via TBMB) [Compound 144]	Satisfied
ACPWGPAWCPVNRPGCA (N-terminal Fl-G-Sar5 before the entry (5(6)-carboxyfluorescein, Gly, five sarcosines); three Cys cyclised on TBMB, bicyclic peptide, fluorescent) [Compound 12]	Not satisfied
{AF488-βAla}-[Sar][Sar][Sar][Sar][Sar][Sar][Sar][Sar][Sar][Sar]H[dD]VPC[Aib][1Nal]G[Aib]F[1Nal]CP[Tle]N[hArg]P[dD]C (linker 15-22-29 via TBMB) [Compound 140]	Satisfied
{AF488-βAla}-[Sar][Sar][Sar][Sar][Sar][Sar][Sar][Sar][Sar][Sar]H[dD]VPCP[1Nal]G[Aib]F[1Nal]CP[Tle]NR[Aib][dD]C (linker 15-22-29 via TBMB) [Compound 145]	Satisfied

Incoming: Tell me whether pKd is at least 8 here: ADVTCPWGPFWCPVNRPGCA (N-terminal Fl-G-Sar5 before the entry; three Cys cyclised on TBMB, bicyclic peptide, fluorescent) [Compound 18]
Outgoing: Satisfied

Incoming: Exam item: decide whether the reported pKd for {AF488-βAla}-[Sar][Sar][Sar][Sar][Sar][Sar][Sar][Sar][Sar][Sar]H[dD][Gly(cPent)]PCP[1Nal]G[Aib]F[1Nal]CP[Tle]N[hArg]P[dD]C (linker 15-22-29 via TBMB) [Compound 147] is at least 8.
Outgoing: Satisfied
